Numbers sourced from patent US20250296971A1.

- Tested Target: GIPR (CHO-K1-hGIPR cells) (Homo sapiens)
- Construct: host or cells: CHO-K1
- Sequence (P48546 22-466): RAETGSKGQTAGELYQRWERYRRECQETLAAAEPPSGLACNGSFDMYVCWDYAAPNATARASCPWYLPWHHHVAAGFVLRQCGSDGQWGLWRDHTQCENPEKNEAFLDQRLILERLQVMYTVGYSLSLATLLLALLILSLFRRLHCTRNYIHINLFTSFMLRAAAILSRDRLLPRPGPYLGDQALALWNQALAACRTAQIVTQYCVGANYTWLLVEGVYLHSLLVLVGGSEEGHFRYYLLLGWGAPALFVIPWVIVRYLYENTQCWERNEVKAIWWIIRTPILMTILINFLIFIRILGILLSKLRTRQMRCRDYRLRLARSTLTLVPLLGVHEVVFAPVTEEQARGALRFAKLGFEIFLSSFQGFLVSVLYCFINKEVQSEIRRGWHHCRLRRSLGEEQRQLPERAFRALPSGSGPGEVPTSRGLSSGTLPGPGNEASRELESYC
- Experimental Details: FACS binding assay
- Details: competition with 20 nM GIP-057, 4° C. for 1 hour, read-out: pIC50 Category (converted)
*1 amine or outer side, *2 acyl side, *3 side chain or, on linkers, in order; H or OH if unused. Where a SMILES comes first, the peptide text is derived from it. Bridges are numbered along the chain shown (N, C = ends). [ ]: non-standard residue; d: D form. The star is where a group is joined. X3 = O=C(O)CN1CCN(CC(=O)O)CCN(CC(=O)NCCCOCCOCCOCCCN*)CCN(CC(=O)O)CC1; DOTA = O=C(O)CN1CCN(CC(=O)O)CCN(CC(=O)*)CCN(CC(=O)O)CC1; Trp(5-Cl) = N[C@@H](Cc1c[nH]c2ccc(Cl)cc12)C(=O)O; Phe(3,5-Cl2) = N[C@@H](Cc1cc(Cl)cc(Cl)c1)C(=O)O; Pyridine(2,6-diCH2) = c1cc(C[*:1])nc(C[*:2])c1; mXylylene = c1cc(C[*:1])cc(C[*:2])c1; X6 = c1cc(CSCCN[*:2])nc(C[*:1])c1; Hyp = O=C(O)[C@@H]1C[C@@H](O)CN1; X1 = O=C(CN1CCC(N[*:1])CC1)[*:2]; Suc = O=C(CCC(=O)[*:2])[*:1]; Thp = NC1(C(=O)O)CCOCC1
Collected IC50 values appear next to each entry.

As a guide, the following entries are already answered.
CC[C@H](C)[C@@H]1NC(=O)[C@H](CC(C)C)NC(=O)C2(CCOCC2)NC(=O)[C@@H](NC(=O)[C@@H](CC(C)C)NC(=O)[C@H](CCC(=O)O)NC(=O)[C@@H]2C[C@@H](O)CN2C(=O)[C@H](Cc2c[nH]c3ccc(Cl)cc23)NC(=O)CNC(=O)[C@H](CC(=O)O)NC(=O)CN2CCC(NC(=O)CN3CCN(CC(=O)O)CCN(CC(=O)O)CCN(CC(=O)O)CC3)CC2)CSCc2cccc(n2)CSCCNC1=O [GIP-284] ({DOTA}-[X1]DG[Trp(5-Cl)][Hyp]E[dL]C[Thp]LI; linker 8-C via X6)    100 to 794 nM
CC[C@H](C)[C@@H]1NC(=O)[C@H](CC(C)C)NC(=O)C2(CCOCC2)NC(=O)[C@@H](NC(=O)[C@@H](CC(C)C)NC(=O)[C@H](CCC(=O)O)NC(=O)[C@@H]2C[C@@H](O)CN2C(=O)[C@H](Cc2c[nH]c3ccc(Cl)cc23)NC(=O)[C@H](Cc2cc(Cl)cc(Cl)c2)NC(=O)[C@H](CC(=O)O)NC(C)=O)CSCc2cccc(n2)CSC[C@@H](C(N)=O)NC1=O [GIP-263] (Ac-D[Phe(3,5-Cl2)][Trp(5-Cl)][Hyp]E[dL]C[Thp]LIC-NH2; linker 7-11 via Pyridine(2,6-diCH2))    10 to 79.4 nM
CC[C@H](C)[C@@H]1NC(=O)[C@H](CC(C)C)NC(=O)[C@H](C)NC(=O)[C@@H](NC(=O)[C@H](CC(C)C)NC(=O)[C@H](CCC(=O)O)NC(=O)[C@@H]2CCCN2C(=O)[C@@H](Cc2c[nH]c3ccccc23)NC(=O)[C@H](Cc2c[nH]c3ccccc23)NC(=O)[C@H](CC(=O)O)NC(=O)[C@H](Cc2ccc(O)cc2)NC(=O)[C@@H](N)CCSC)CSCc2cccc(c2)CSC[C@@H](C(N)=O)NC1=O [GIP-329] (H-MYDW[dW]PELCALIC-NH2; linker 9-13 via mXylylene)    > 1000 nM

Now look at this entry.
Query: What value of IC50 has been reported for the following compound? CC[C@H](C)[C@@H]1NC(=O)[C@H](CC(C)C)NC(=O)[C@@H](C)NC(=O)[C@@H](NC(=O)[C@H](CC(C)C)NC(=O)[C@H](CCC(=O)O)NC(=O)[C@@H]2CCCN2C(=O)[C@H](Cc2c[nH]c3ccccc23)NC(=O)[C@H](Cc2c[nH]c3ccccc23)NC(=O)[C@H](CC(=O)O)NC(=O)CCC(=O)NCCCOCCOCCOCCCNC(=O)CN2CCN(CC(=O)O)CCN(CC(=O)O)CCN(CC(=O)O)CC2)CSCc2cccc(c2)CSC[C@@H](C(N)=O)NC1=O [GIP-271] ({X3-Suc}-DWWPELC[dA]LIC-NH2; linker 7-11 via mXylylene)
Response: 100 to 794 nM
